Data provenance is patent US10098888B2.

- System: CYP3A4/5
- test.method.notes: Time-Dependent Inactivation (TDI) assessment of CYP3A4/5
- Format: in vitro ADME, human
- measurement.context: pH 7.4, probe testosterone; time-dependent inactivation of CYP3A4/5, human liver microsomes; read-out: KI
test.readout: pKi
Here pKi is given on a logarithmic scale as minus log10 of the concentration in mol/L.

For orientation, consider the following solved cases.
>>> reported("CCN(c1cc(C#CCN2CCOCC2)cc(C(=O)NCc2c(C)cc(C)[nH]c2=O)c1C)[C@H]1CC[C@H](N(C)CCOC)CC1")
4.65
>>> reported("CCN(c1cc(C#CC2CCN(C)CC2)cc(C(=O)NCc2c(C)cc(C)[nH]c2=O)c1C)C1CCOCC1")
4.99

# ---- query compound ----
Q: Name the recorded pKi of the compound listed here: CCN(c1cc(-c2ccc(OCCOC)cc2)cc(C(=O)NCc2c(C)cc(C)[nH]c2=O)c1C)[C@H]1CC[C@H](N(C)C)CC1
A: 5.19
